This section presents compounds with their documented IC50 values.
# Target under test: UniProt:Q9P0U3
# Sequence (Q9P0U3 whole entry): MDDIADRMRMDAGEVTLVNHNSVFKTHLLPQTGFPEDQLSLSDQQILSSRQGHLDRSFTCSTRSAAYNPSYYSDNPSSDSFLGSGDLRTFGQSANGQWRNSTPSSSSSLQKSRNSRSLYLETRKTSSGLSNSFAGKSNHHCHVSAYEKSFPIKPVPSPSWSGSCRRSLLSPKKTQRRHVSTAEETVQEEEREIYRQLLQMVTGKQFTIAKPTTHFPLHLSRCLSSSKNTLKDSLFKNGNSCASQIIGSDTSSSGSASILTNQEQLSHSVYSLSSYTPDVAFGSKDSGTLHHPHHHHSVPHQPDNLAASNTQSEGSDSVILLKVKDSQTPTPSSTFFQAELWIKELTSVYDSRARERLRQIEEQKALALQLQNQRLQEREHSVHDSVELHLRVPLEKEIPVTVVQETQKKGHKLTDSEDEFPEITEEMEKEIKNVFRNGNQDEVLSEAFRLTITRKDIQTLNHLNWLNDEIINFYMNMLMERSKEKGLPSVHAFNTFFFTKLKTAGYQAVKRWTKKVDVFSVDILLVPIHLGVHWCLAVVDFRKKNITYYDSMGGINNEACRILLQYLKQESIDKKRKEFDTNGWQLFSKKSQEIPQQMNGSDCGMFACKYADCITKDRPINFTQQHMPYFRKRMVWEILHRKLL
# Method notes: SENP1 activity in cells (SUMOylated JAK2, Western blot quantification)
# Assay type: cell-based
# Parameters: endogenous in cells; host or cells: IGROV1 CR cells
# Experimental conditions: IGROV1 CR cells, 48 h, intensity of SUMOylated JAK2; read-out: SENP1 inhibition in cells IC50
Experimental readout: IC50

[[record]]
compound = "C[C@H]1[C@H](C)CC[C@]2(C(=O)O)CC[C@]3(C)C(=CC[C@@H]4[C@@]5(C)CC[C@H](O)C(C)(C)[C@@H]5CC[C@]43C)[C@H]12 [UA, ursolic acid, reference compound]"
measurement = "0.24 µM"

[[record]]
compound = "CC1(C)CC[C@]2(C(=O)O)CC[C@]3(C)C(=CC[C@@H]4[C@@]5(C)CC[C@H](O[C@@H]6O[C@H](C(=O)O)[C@@H](O)[C@H](O[C@@H]7OC[C@@H](O)[C@H](O)[C@H]7O)[C@H]6O)C(C)(C)[C@@H]5CC[C@]43C)[C@@H]2C1"
measurement = "31.8 µM"

